Hi there, I'd appreciate the recorded folding enthalpy for every entry that follows.
- assay-procedure: folding enthalpy; higher = less favourable; fluorescence melt of hairpins on a sequencing array, two-state fit
- cond: sodium 0.088 M
One number for each entry, in kcal/mol.

The following sequences have reported results that may help.
[
  {
    "biosequence": "GCGGGGCGAAAGCGCGGC ((.(.((....)).).))",
    "assay-metric": "folding enthalpy",
    "measured": -27.6
  },
  {
    "biosequence": "GATCCGGTTTCGGATC ((((((....))))))",
    "assay-metric": "folding enthalpy",
    "measured": -44.2
  },
  {
    "biosequence": "GTATAGCGAAAGCTGTAC (((.(((....))).)))",
    "assay-metric": "folding enthalpy",
    "measured": -31.5
  },
  {
    "biosequence": "GAGCGTCCGAAAGGACTC (((..(((....))))))",
    "assay-metric": "folding enthalpy",
    "measured": -7.91
  },
  {
    "biosequence": "GCCTAGCGAAAGCGCGGC (((..((....))..)))",
    "assay-metric": "folding enthalpy",
    "measured": -18.5
  }
]

**Q:** For the sequence GAGCCCGAAAGGGGGCTC ((((((....)))..))) , give its measured folding enthalpy value.
**A:** -22.8

* * *

- assay-procedure: folding enthalpy; higher = less favourable; fluorescence melt of hairpins on a sequencing array, two-state fit
- cond: sodium 0.088 M
Rule: folding enthalpy of -30 kcal/mol or more gives TRUE; anything lower gives FALSE.

[
  {
    "biosequence": "GCTAATCGAAAGATAGC (((.(((....))))))",
    "class-name": "TRUE"
  }
]

**Q:** Would you say GGTTTTGGAAACAAAATC (.(((((....))))).) shows folding enthalpy at minimum -30 kcal/mol?
**A:** FALSE

**Q:** API: above_or_equal(metric=folding enthalpy, cutoff=-30 kcal/mol) for item GATCCCATGGGGGATC ((((((....))))))
**A:** FALSE

**Q:** Hello, I need to know if GAAGGCGAAAGCCCGTTC ((((((....)))..))) has measured folding enthalpy not below -30 kcal/mol. Thanks!
**A:** TRUE

**Q:** Dear colleague, could you confirm whether GTACACGAAAGTGAATAC ((((((....)))..))) has folding enthalpy at or above -30 kcal/mol?
**A:** TRUE

**Q:** Identify whether the reported folding enthalpy of the following sequence is -30 kcal/mol or greater: GTTTTCGGAAACGAGAAC (((.(((....))).)))
**A:** TRUE

**Q:** Confirm if folding enthalpy reported for the sequence GTTATTGGAAACAATAAC (((((((....))))))) is -30 kcal/mol or above.
**A:** FALSE

* * *

- assay-procedure: folding enthalpy; higher = less favourable; fluorescence melt of hairpins on a sequencing array, two-state fit
- cond: sodium 0.088 M
assay-metric: folding enthalpy
# answer = value followed by unit

[
  {
    "biosequence": "GATCTCGAGGGAGATC ((((((....))))))",
    "assay-metric": "folding enthalpy",
    "measured": "-19.9 kcal/mol"
  },
  {
    "biosequence": "GCGAGCGGAAACGCTTGC ((.((((....)))).))",
    "assay-metric": "folding enthalpy",
    "measured": "-34.4 kcal/mol"
  },
  {
    "biosequence": "CGGCATCGGAAACGACCG (((..(((....))))))",
    "assay-metric": "folding enthalpy",
    "measured": "-16.6 kcal/mol"
  },
  {
    "biosequence": "GCAGGCCCGAAAGGGTGC (((..(((....))))))",
    "assay-metric": "folding enthalpy",
    "measured": "-13.1 kcal/mol"
  },
  {
    "biosequence": "GCCGACGGAAACGCCAGC ((.(.((....)).).))",
    "assay-metric": "folding enthalpy",
    "measured": "-13.3 kcal/mol"
  },
  {
    "biosequence": "CGGAAGAAATTCCG (((((....)))))",
    "assay-metric": "folding enthalpy",
    "measured": "-25.1 kcal/mol"
  }
]

Record folding enthalpy for all entries; do not skip any.
1. GCGTATCCACGC ((((....))))
2. CGTACGAAAGTACG (((((....)))))
3. GCGAGCGAAAGCTGTCGC ((((((....)))..)))

**A:**
1: -26.4 kcal/mol; 2: -26.7 kcal/mol; 3: -23.8 kcal/mol

Your task in this section: give folding enthalpy for each listed record.
1. GGAGTGGGAAACCGTTCC (((..((....))..)))
2. GATCGTGGCTACGATC ((((((....))))))
3. GCATTCGAAAGAATGC ((((((....))))))
4. GATCCTCCTAAGGATC ((((((....))))))
5. GTCTGAGGAAACTCAGAC (((((((....)))))))
6. CGTTCGCGGAAACGCACG (((..(((....))))))
7. AGCTAGAAATAGCT (((((....)))))
8. GGCAAAGGAAACTCTGCC ((((.((....)).))))

**A:**
["-17.8 kcal/mol", "-39.3 kcal/mol", "-28.3 kcal/mol", "-37.5 kcal/mol", "-45.5 kcal/mol", "-13.6 kcal/mol", "-14.9 kcal/mol", "-32.1 kcal/mol"]

Record folding enthalpy per entry; entries follow.
1. GATAACCCGAAAGGGATC (((..(((....))))))
2. GAGCGTGGAAACACGTTC ((.((((....)))).))
3. TAGATGAAAATCTA (((((....)))))
4. GCGGCAGGAAACTGTCGC (((.(((....))).)))
5. CAAGTGAAAACTTG (((((....)))))
6. GTTTCCGGAAACGGAAGC (.(((((....))))).)

**A:**
1: -17.8 kcal/mol; 2: -24.7 kcal/mol; 3: -10.1 kcal/mol; 4: -38.1 kcal/mol; 5: -23.7 kcal/mol; 6: -16.7 kcal/mol

Would you mind listing folding enthalpy for each of the following sequences?
1. GCACTCGAAAGAGACTGC ((((((....)))..)))
2. GGGTCGGGAAACTGACCC (((((.(....).)))))
3. GCGTTCGAAAGAATACGC ((((((....)))..)))

**A:**
-17 kcal/mol
-51.9 kcal/mol
-27.3 kcal/mol

* * *

Answer each item with its documented folding enthalpy.
- assay-procedure: folding enthalpy; higher = less favourable; fluorescence melt of hairpins on a sequencing array, two-state fit
- cond: sodium 0.088 M
Please append the unit to your numeric answer.

Solved cases below.
[
  {
    "biosequence": "GTGCCTGCGAAAGCACAC (((..(((....))))))",
    "measured": "-7.25 kcal/mol"
  },
  {
    "biosequence": "GGACGCGAAAGCGAATCC ((((((....)))..)))",
    "measured": "-13.5 kcal/mol"
  },
  {
    "biosequence": "GACGAGGGAAACCCCGTC ((((.((....)).))))",
    "measured": "-31.4 kcal/mol"
  },
  {
    "biosequence": "GGACAACGAAAGTTTTCC (((.(((....))).)))",
    "measured": "-29.2 kcal/mol"
  },
  {
    "biosequence": "GCGGTGGGCCGC ((((....))))",
    "measured": "-13.9 kcal/mol"
  }
]

State the recorded folding enthalpy for every item in the following list.
1. GATCGAGTTTCGATC ((((((...))))))
2. GATCGGGGTACCGATC ((((((....))))))

**A:**
["-31.4 kcal/mol", "-34.5 kcal/mol"]

Each sequence below has a recorded value; state its folding enthalpy.
1. GCATTCACGAAAGTGTGC (((..(((....))))))
2. GCGTTTTCGAAAGAACGC (((..(((....))))))

**A:**
1: -18.2 kcal/mol; 2: -32 kcal/mol

* * *

Exercise: for every item that follows, state its recorded folding enthalpy.
- assay-procedure: folding enthalpy; higher = less favourable; fluorescence melt of hairpins on a sequencing array, two-state fit
- cond: sodium 0.088 M
Answers are plain numbers, in kcal/mol.

[
  {
    "biosequence": "GGTAGGGGAAACCCCACC (((.(((....))).)))",
    "assay-metric": "folding enthalpy",
    "measured": -23.7
  },
  {
    "biosequence": "GATCTTTGATAAGATC ((((((....))))))",
    "assay-metric": "folding enthalpy",
    "measured": -25.5
  },
  {
    "biosequence": "GATCGTGTAACGATC ((((((...))))))",
    "assay-metric": "folding enthalpy",
    "measured": -48.1
  },
  {
    "biosequence": "GTATTTGGAAACAAATGC (.(((((....))))).)",
    "assay-metric": "folding enthalpy",
    "measured": -28.4
  }
]

Give folding enthalpy for each listed item.
1. CGCGGACAAATCCGCG ((((((....))))))
2. GTGTTGGAAACAACAC ((((((....))))))

**A:**
1. -40.8
2. -35
